# target.desc: 17-beta-hydroxysteroid dehydrogenase type 3 (Rattus norvegicus)
# measurement.protocol: Inhibition of 17beta-HSD3 in rat testes microsomes using [14C]-4-androstene-3,17-dione as substrate measured based on 4% of initial enzyme transformation at 10 uM after 2 hrs
# recorded.conditions: Testis
In this section, each of the compounds is paired with its reported inhibition.
Report only the number, with the unit % understood.

Solved cases below.
compound: COC(=O)[C@@H](CC(C)C)N1C[C@]2(CC[C@@]3(C)[C@@H](CC[C@@H]4[C@@H]3CC[C@]3(C)C(=O)CC[C@@H]43)C2)OC1=O
inhibition, %: 67.8
//
compound: CC(C)C[C@@H]1C(=O)O[C@@]2(CC[C@@]3(C)[C@@H](CC[C@@H]4[C@@H]3CC[C@]3(C)C(=O)CC[C@@H]43)C2)CN1Cc1ccccc1
inhibition, %: 82.3
//
compound: CC(C)C[C@H]1NC[C@]2(CC[C@@]3(C)[C@@H](CC[C@@H]4[C@@H]3CC[C@]3(C)C(=O)CC[C@@H]43)C2)OC1=O
inhibition, %: 77.7

inhibition for `C[C@]12CC[C@]3(CNCC(=O)O3)C[C@@H]1CC[C@@H]1[C@@H]2CC[C@]2(C)C(=O)CC[C@@H]12` is 82

// `COC(=O)[C@H](CC(C)C)N1C[C@]2(CC[C@@]3(C)[C@@H](CC[C@@H]4[C@@H]3CC[C@]3(C)C(=O)CC[C@@H]43)C2)OC1=O` : inhibition value = 88.4

`CC(C)C[C@@H]1NC[C@]2(CC[C@@]3(C)[C@@H](CC[C@@H]4[C@@H]3CC[C@]3(C)C(=O)CC[C@@H]43)C2)OC1=O` has a reported inhibition of 83.8

Lab note: `COC(=O)[C@@H](Cc1ccccc1)N1C[C@]2(CC[C@@]3(C)[C@@H](CC[C@@H]4[C@@H]3CC[C@]3(C)C(=O)CC[C@@H]43)C2)OC1=O` gave inhibition of 80.8

According to the records, this compound `C[C@]12CC[C@@]3(C[C@@H]1CC[C@@H]1[C@@H]2CC[C@]2(C)C(=O)CC[C@@H]12)CN(Cc1ccccc1)CC(=O)O3` displays inhibition of 95.2

Notebook: `C[C@]12CC[C@]3(CN[C@@H](Cc4ccccc4)C(=O)O3)C[C@@H]1CC[C@@H]1[C@@H]2CC[C@]2(C)C(=O)CC[C@@H]12` , inhibition read as 88.2

The reported value for `CC(C)C[C@H]1C(=O)O[C@@]2(CC[C@@]3(C)[C@@H](CC[C@@H]4[C@@H]3CC[C@]3(C)C(=O)CC[C@@H]43)C2)CN1Cc1ccccc1` in terms of inhibition is 87.1

---

The entries below are paired with their reported inhibition.
# target.desc: 17-beta-hydroxysteroid dehydrogenase type 3 (Rattus norvegicus)
# Sequence (whole entry): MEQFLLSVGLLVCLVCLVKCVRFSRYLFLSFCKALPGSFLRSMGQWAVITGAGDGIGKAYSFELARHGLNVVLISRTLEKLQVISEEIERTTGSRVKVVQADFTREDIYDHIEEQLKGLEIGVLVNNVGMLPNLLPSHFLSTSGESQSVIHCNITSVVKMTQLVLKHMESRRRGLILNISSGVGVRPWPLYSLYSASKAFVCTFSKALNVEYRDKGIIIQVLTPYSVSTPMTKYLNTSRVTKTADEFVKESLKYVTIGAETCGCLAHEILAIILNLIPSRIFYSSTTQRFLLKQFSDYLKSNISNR
# measurement.protocol: Inhibition of 17beta-HSD3 in rat testes microsomes using [14C]-4-androstene-3,17-dione as substrate measured based on 4% of initial enzyme transformation at 1 uM after 2 hrs
# recorded.conditions: Testis

inhibition for `COC(=O)[C@H](CC(C)C)N1C[C@]2(CC[C@@]3(C)[C@@H](CC[C@@H]4[C@@H]3CC[C@]3(C)C(=O)CC[C@@H]43)C2)OC1=O` is 82.3%

The value of inhibition measured for the molecule `CC(C)C[C@@H]1NC[C@]2(CC[C@@]3(C)[C@@H](CC[C@@H]4[C@@H]3CC[C@]3(C)C(=O)CC[C@@H]43)C2)OC1=O` turned out to be 69.3%

For record `C[C@]12CC[C@@]3(C[C@@H]1CC[C@@H]1[C@@H]2CC[C@]2(C)C(=O)CC[C@@H]12)CN(Cc1ccccc1)[C@@H](Cc1ccccc1)C(=O)O3` the listed inhibition is 81%

---

# target.desc: 17-beta-hydroxysteroid dehydrogenase type 3 (Rattus norvegicus) (UniProt O54939)
# measurement.protocol: Inhibition of 17beta-HSD3 in rat testes microsomes using [14C]-4-androstene-3,17-dione as substrate measured based on 18% of initial enzyme transformation at 0.1 uM after 2 hrs
# recorded.conditions: Testis
test.readout: inhibition (%)
Expressed in %, but write only the number.

The following compounds have reported results that may help.
structure.smiles.string: C[C@]12CC[C@@]3(C[C@@H]1CC[C@@H]1[C@@H]2CC[C@]2(C)C(=O)CC[C@@H]12)CN(Cc1cccc(C(F)(F)F)c1)CC(=O)O3
test.readout: inhibition
display.unit: %
assay.value: 54.1
--
structure.smiles.string: C[C@]12CC[C@@]3(C[C@@H]1CC[C@@H]1[C@@H]2CC[C@]2(C)C(=O)CC[C@@H]12)CN(Cc1ccc(-c2cccc(C(F)(F)F)c2)cc1)CC(=O)O3
test.readout: inhibition
display.unit: %
assay.value: 84.8

Query compound follows.
Measured inhibition, `COC(=O)[C@H](CC(C)C)N1C[C@]2(CC[C@@]3(C)[C@@H](CC[C@@H]4[C@@H]3CC[C@]3(C)C(=O)CC[C@@H]43)C2)OC1=O` : 57.6

---

The compounds listed here are annotated with their inhibition.
# target.desc: 17-beta-hydroxysteroid dehydrogenase type 3 (Rattus norvegicus) (UniProt O54939)
# measurement.protocol: Inhibition of 17beta-HSD3 in rat testes microsomes using [14C]-4-androstene-3,17-dione as substrate measured based on 33% of initial enzyme transformation at 10 uM after 2 hrs
# recorded.conditions: Testis
// note: answer is a bare numeric in %

structure.smiles.string: C[C@]12CC[C@@]3(C[C@@H]1CC[C@@H]1[C@@H]2CC[C@]2(C)C(=O)CC[C@@H]12)CN(Cc1ccc(C(F)(F)F)cc1)CC(=O)O3
inhibition / %: 91.2
//
structure.smiles.string: C[C@]12CC[C@@]3(C[C@@H]1CC[C@@H]1[C@@H]2CC[C@]2(C)C(=O)CC[C@@H]12)CN(CCc1ccccc1)CC(=O)O3
inhibition / %: 95.2

Measured inhibition of `C[C@]12CC[C@@]3(C[C@@H]1CC[C@@H]1[C@@H]2CC[C@]2(C)C(=O)CC[C@@H]12)CN(Cc1ccc(OC(F)(F)F)cc1)CC(=O)O3` : 95.7

Notebook: `C[C@]12CC[C@@]3(C[C@@H]1CC[C@@H]1[C@@H]2CC[C@]2(C)C(=O)CC[C@@H]12)CN(CCc1ccc(C(F)(F)F)cc1)CC(=O)O3` , inhibition read as 93.3

The recorded inhibition for `C[C@]12CC[C@@]3(C[C@@H]1CC[C@@H]1[C@@H]2CC[C@]2(C)C(=O)CC[C@@H]12)CN(Cc1ccccc1)CC(=O)O3` is 94.3

inhibition recorded for this compound, `C[C@]12CC[C@@]3(C[C@@H]1CC[C@@H]1[C@@H]2CC[C@]2(C)C(=O)CC[C@@H]12)CN(Cc1ccc(Br)cc1)CC(=O)O3` , is 91.6

---

# target.desc: 17-beta-hydroxysteroid dehydrogenase type 3 (Rattus norvegicus) (UniProt O54939)
# Sequence (whole entry): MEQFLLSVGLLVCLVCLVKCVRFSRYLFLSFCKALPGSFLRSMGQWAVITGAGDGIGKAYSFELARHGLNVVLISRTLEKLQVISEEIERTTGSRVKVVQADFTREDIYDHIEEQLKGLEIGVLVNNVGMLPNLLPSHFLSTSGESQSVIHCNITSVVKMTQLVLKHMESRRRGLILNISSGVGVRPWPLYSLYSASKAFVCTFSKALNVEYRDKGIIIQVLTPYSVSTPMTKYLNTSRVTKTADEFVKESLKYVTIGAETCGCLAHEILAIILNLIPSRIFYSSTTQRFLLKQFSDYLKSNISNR
# measurement.protocol: Inhibition of 17beta-HSD3 in rat testes microsomes using [14C]-4-androstene-3,17-dione as substrate measured based on 18% of initial enzyme transformation at 1 uM after 2 hrs
# recorded.conditions: Testis
Assign classes using reported inhibition values and the ranges low group: < 80%; middle group: ≥ 80% and < 90%; high group: ≥ 90%, please.

molecule: C[C@]12CC[C@@]3(C[C@@H]1CC[C@@H]1[C@@H]2CC[C@]2(C)C(=O)CC[C@@H]12)CN(Cc1cccc(C(F)(F)F)c1)CC(=O)O3
assigned.label: high group

Ask: Class label required: `CC(C)C[C@H]1C(=O)O[C@@]2(CC[C@@]3(C)[C@@H](CC[C@@H]4[C@@H]3CC[C@]3(C)C(=O)CC[C@@H]43)C2)CN1Cc1ccccc1`
Reply: high group

Ask: Categorize the following entry: `COC(=O)[C@H](CC(C)C)N1C[C@]2(CC[C@@]3(C)[C@@H](CC[C@@H]4[C@@H]3CC[C@]3(C)C(=O)CC[C@@H]43)C2)OC1=O`
Reply: high group

Ask: Exercise: read the entry `C[C@]12CC[C@@]3(C[C@@H]1CC[C@@H]1[C@@H]2CC[C@]2(C)C(=O)CC[C@@H]12)CN(Cc1ccc(-c2cccc(C(F)(F)F)c2)cc1)CC(=O)O3` and state which class it falls under.
Reply: middle group

Ask: # classify by inhibition band: `COC(=O)[C@@H](CC(C)C)N1C[C@]2(CC[C@@]3(C)[C@@H](CC[C@@H]4[C@@H]3CC[C@]3(C)C(=O)CC[C@@H]43)C2)OC1=O`
Reply: low group

Ask: Kindly state the category for this molecule: `C[C@]12CC[C@@]3(C[C@@H]1CC[C@@H]1[C@@H]2CC[C@]2(C)C(=O)CC[C@@H]12)CN(Cc1ccc2ccccc2c1)CC(=O)O3`
Reply: high group
